target: ATAD2B (Homo sapiens); experiment: BromoScan selectivity panel (Kd); assay type: binding; conditions: Table 9; read-out: BromoScan Kd, nM ATAD2B
Sequence (Q9ULI0 953-1085 limits assumed): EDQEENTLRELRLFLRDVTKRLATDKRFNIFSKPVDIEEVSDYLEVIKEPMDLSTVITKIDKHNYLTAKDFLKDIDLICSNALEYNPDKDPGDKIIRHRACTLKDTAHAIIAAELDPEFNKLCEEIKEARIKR
value-kind: Kd

### Prompt Indicate the recorded Kd value for this compound: Cc1noc(C)c1-c1ccc(-c2nc3cnccn3c2NC(C)(C)C)cc1
### Response ≥ 40000 nM

* * *

molecular target: BRD4(1) (Homo sapiens, UniProt O60885); construct: the bromodomain-containing protein is BRD4(1); assay: BromoScan selectivity panel (Kd); type: binding; conditions: Table 8; read-out: Kd (nM) BRD4(1)
value-kind: Kd
# answer = value followed by unit

### Prompt Indicate the recorded Kd value for this compound: Cc1noc(C)c1-c1ccc(-c2nc3cnccn3c2NC(C)(C)C)cc1 [UMB32]
### Response 80 nM

* * *

target: BRD4(1) (Homo sapiens); construct: the bromodomain-containing protein is BRD4(1); assay: BromoScan selectivity panel (Kd); format: binding; settings: Table 9; read-out: BromoScan Kd, nM BRD4(1)
value-kind: Kd (nM)
Answers are plain numbers, in nM.

### Prompt Indicate the recorded Kd value for this compound: Cc1noc(C)c1-c1ccc(-c2nc3cnccn3c2NC(C)(C)C)cc1 [UMB32]
### Response 80

* * *

Target: BAZ2A (Homo sapiens, UniProt Q9UIF9)
Sequence (Q9UIF9 1796-1899 limits assumed): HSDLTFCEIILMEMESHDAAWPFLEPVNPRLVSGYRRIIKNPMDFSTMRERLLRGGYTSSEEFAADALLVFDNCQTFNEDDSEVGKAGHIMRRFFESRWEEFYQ
Assay: BromoScan selectivity panel (Kd)
Format: binding
Conditions: Table 9; read-out: BromoScan Kd, nM BAZ2A
value-kind: Kd

### Prompt For BAZ2A (Homo sapiens, UniProt Q9UIF9), give Kd of the listed compound: Cc1noc(C)c1-c1ccc(-c2nc3cnccn3c2NC(C)(C)C)cc1 [UMB32]
### Response ≥ 40000 nM

* * *

molecular target: TRIM24(PHD Bromo.) (Homo sapiens, UniProt O15164); construct: TRIM24(PHD Bromo.); assay: BromoScan selectivity panel (Kd); type: binding; conditions: Table 9; read-out: BromoScan Kd, nM TRIM24(PHD, Bromo.)
Sequence (O15164 824-1006 limits assumed): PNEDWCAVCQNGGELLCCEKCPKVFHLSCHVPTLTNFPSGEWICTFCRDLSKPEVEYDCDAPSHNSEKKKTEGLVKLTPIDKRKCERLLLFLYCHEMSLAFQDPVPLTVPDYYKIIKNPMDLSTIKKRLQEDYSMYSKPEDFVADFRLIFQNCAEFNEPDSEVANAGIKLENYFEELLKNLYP
value-kind: Kd

### Prompt Indicate the recorded Kd value for this compound: Cc1noc(C)c1-c1ccc(-c2nc3cnccn3c2NC(C)(C)C)cc1 [UMB32]
### Response ≥ 40000 nM

* * *

Biological target: EP300 (Homo sapiens)
Sequence (Q09472 1040-1161 limits assumed): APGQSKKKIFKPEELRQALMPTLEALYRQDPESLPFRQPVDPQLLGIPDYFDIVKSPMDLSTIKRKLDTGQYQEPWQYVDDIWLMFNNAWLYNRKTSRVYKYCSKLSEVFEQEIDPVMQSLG
Test: BromoScan selectivity panel (Kd)
Assay type: binding
Conditions: Table 8; read-out: Kd (nM) EP300
value-kind: Kd
# answer = value followed by unit

### Prompt Indicate the recorded Kd value for this compound: Cc1noc(C)c1-c1ccc(-c2nc3cnccn3c2NC(C)(C)C)cc1
### Response 4500 nM

* * *

biological target: BRD4 (Homo sapiens, UniProt O60885); experiment: In vitro AlphaScreen protein binding assay (competition with biotinylated JQ1); conditions: BRD4--IC50 (μM), Table 6; biochemical
value-kind: IC50

### Prompt Indicate the recorded IC50 value for this compound: Cc1noc(C)c1-c1ccc(-c2nc3cnccn3c2NCC(=O)O)cc1 [Compound 22a]
### Response > 100 µM
